A collection of binders and their measured pIC50
TARGET_OR_SYSTEM: T1, CD73 on the surface of human tumor cells (human, UniProt P21589 27-549)
T1 chain: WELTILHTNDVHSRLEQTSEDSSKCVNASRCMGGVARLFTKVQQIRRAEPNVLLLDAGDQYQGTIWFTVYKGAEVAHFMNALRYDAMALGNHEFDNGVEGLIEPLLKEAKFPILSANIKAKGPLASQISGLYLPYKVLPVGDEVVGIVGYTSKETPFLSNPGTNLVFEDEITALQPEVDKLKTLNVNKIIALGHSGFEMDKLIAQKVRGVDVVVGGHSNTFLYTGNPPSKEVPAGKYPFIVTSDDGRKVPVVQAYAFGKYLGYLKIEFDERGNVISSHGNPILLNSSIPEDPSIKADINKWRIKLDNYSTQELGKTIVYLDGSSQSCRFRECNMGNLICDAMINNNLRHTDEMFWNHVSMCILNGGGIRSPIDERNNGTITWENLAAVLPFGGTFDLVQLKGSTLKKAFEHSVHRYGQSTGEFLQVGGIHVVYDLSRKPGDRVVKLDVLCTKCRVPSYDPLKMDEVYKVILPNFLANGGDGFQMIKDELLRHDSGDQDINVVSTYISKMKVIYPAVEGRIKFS
ASSAY_NAME: inhibition of cell-surface CD73 enzyme activity; right panel
Quick note: pIC50 means taking -log10 of the concentration in moles per liter.

Worked cases, answers included:
>>> recorded_value("Hu002c-14 (antibody, V domains shown) VH: QVQLVQSGAEVKKPGASVKVSCKASGYTLTSYWMHWVKKAPGQGLEWIGEINPSQGRSNYNEKFKSKVTLTVDRSTSTVYMELSSLRSEDTAVYYCARRGVSGNYFDYWGQGTLVTVSS VL: DIQMTQSPSSLSASVGDRVTITCKASQDINTYLSWFQQKPGKAPKSLIYRSNILVSGVPSRFSGSGSGQDYTLTISSLQPEDFATYYCLQYDEFPYTFGQGTKLEIK")
9.36
>>> recorded_value("Hu002c-11 (antibody, V domains shown) VH: QVQLVQSGAEVKKPGASVKVSCKASGYTLTSYWMHWVRQAPGQGLEWIGEINPSQGRSNYNEKFKSKVTLTVDRSTSTVYMELSSLRSEDTAVYYCARRGVSGNYFDYWGQGTLVTVSS VL: DIQMTQSPSSLSASVGDRVTITCKASQDINTYLSWFQQKPGKSPKSLIYRSNILVSGVPSRFSGSGSGQDYTLTISSLQPEDFATYYCLQYDEFPYTFGGGTKLEIK")
9.35

Switching to the query record.
Enquiry: I would be grateful if you could share the reported pIC50 for Hu002c-12 (antibody, V domains shown) VH: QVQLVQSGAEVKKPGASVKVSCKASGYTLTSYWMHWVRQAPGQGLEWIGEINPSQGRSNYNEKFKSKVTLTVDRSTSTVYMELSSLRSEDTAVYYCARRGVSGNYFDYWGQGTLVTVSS VL: DIQMTQSPSSLSASVGDRVTITCKASQDINTYLSWFQQKPGKSPKSLIYRSNILVSGVPSRFSGSGSGQDYTLTISSLQPEDFAIYYCLQYDEFPYTFGGGTKLEI .
Return: 9.30
